biological target: UniProtKB P53582
pIC50: −log10 of the molar value.

[
  {
    "Compound": "c1ccc(CCNc2nc(-c3ccccn3)nc3ccccc23)cc1 [10a]",
    "Experimental Target": "UniProtKB P53582",
    "pIC50": 4.62
  }
]

====

biological target: HsMetAP2 (Homo sapiens); test: ProIP-coupled MetAP activity assay, HsMetAP2 with Mn
Sequence (P50579 whole entry): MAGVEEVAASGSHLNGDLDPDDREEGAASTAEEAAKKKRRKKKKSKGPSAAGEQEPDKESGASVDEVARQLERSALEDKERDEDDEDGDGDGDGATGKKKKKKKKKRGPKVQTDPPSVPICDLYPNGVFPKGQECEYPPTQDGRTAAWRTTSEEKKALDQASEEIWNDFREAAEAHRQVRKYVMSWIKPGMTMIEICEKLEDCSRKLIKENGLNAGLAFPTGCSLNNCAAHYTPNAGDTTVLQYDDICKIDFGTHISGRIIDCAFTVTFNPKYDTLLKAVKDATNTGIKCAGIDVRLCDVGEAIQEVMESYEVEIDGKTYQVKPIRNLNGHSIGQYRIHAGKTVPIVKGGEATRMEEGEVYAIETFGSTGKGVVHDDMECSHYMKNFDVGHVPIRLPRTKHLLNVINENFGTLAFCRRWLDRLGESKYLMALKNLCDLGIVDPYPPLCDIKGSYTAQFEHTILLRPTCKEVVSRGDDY
pEC50: −log10 of the molar value.

[
  {
    "Compound": "c1ccc(-c2nc(NCCc3c[nH]c4ccccc34)c3ccccc3n2)nc1 [10c]",
    "pEC50": "< 3.52"
  }
]

====

target: HsMetAP1 (Homo sapiens); assay: ProIP-coupled MetAP activity assay, HsMetAP1 with Co; assay type: biochemical; details: EC50 (μM) HsMetAP1 Co(II), Table 2; 10 μM Co(II); mean ± SD of at least three determinations

[
  {
    "Compound": "c1ccc(-c2nc(NCCc3c[nH]c4ccccc34)c3ccccc3n2)nc1 [10c]",
    "EC50": "0.12 µM"
  }
]
